biological target: Prostaglandin E synthase (Homo sapiens); assay: Inhibition of mPGES1 in human A549 cell microsomal membrane using pGH2 as substrate pretreated for 15 mins followed by substrate addition and measured after 1 min by RP-HPLC method
Sequence (O14684 whole entry): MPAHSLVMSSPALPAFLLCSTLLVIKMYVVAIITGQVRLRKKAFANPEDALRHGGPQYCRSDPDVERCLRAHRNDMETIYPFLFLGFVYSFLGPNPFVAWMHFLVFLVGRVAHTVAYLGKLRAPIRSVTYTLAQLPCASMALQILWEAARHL
assay_endpoint: IC50 (nM)
One number for each entry, in nM.

C=C(C)[C@H](CC=C(C)C)C[C@]12C[C@H](CC=C(C)C)C(C)(C)[C@](CC=C(C)C)(C(=O)C(C(=O)c3ccc(O)c(O)c3)=C1O)C2=O : 300
CCCCCc1cc(OC(=O)c2c(O)cc(OC)cc2CCCCC)cc(O)c1C(=O)O : 430
CCCCCC(=O)Cc1cc(O)cc(O)c1C(=O)Oc1cc(O)c(C(=O)O)c(CCCCC)c1 : 400
C[C@H]1[C@H](C)CC[C@]2(C)CC[C@]3(C)C(=CC(=O)[C@@H]4[C@@]5(C)CC[C@@H](O)[C@](C)(C(=O)O)[C@@H]5CC[C@]43C)[C@H]12 : 10000
COC(=O)c1c(C)cc(OC(=O)c2c(C)cc(O)c(C=O)c2O)c(C)c1O : 1150

Would you be so kind as to report IC50 for each listed record?
1. O=C(O[C@@H]1Cc2c(O)cc(O)cc2O[C@@H]1c1cc(O)c(O)c(O)c1)c1cc(O)c(O)c(O)c1 [EPIGALOCATECHIN GALLATE]
2. COc1cc(/C=C/C(=O)CC(=O)/C=C/c2ccc(O)c(OC)c2)ccc1O

1. 1800
2. 300

Where do the numbers come from? From ChEMBL document CHEMBL4152187.
